// reported normalised viability for each item listed
tested on: HCC1143; experiment: normalised viability (% of control), CellTiter-Blue; higher = more viable cells (100 = DMSO, 0 = benzethonium chloride kill control); conditions: incubation time: 72 h
Observation Type: normalised viability (%)

[[record]]
compound = "CS(=O)(=O)c1ccc(C(=O)Nc2ccc(Cl)c(-c3ccccn3)c2)c(Cl)c1 [Vismodegib] (1 nM)"
endpoint_value = 94.9

[[record]]
compound = "C[C@]1(c2nc3c(C(N)=O)cccc3[nH]2)CCCN1 [Veliparib] (1 nM)"
endpoint_value = 79.1

[[record]]
compound = "Cc1c2oc3c(C)ccc(C(=O)N[C@@H]4C(=O)N[C@H](C(C)C)C(=O)N5CCC[C@H]5C(=O)N(C)CC(=O)N(C)[C@@H](C(C)C)C(=O)O[C@@H]4C)c3nc-2c(C(=O)N[C@@H]2C(=O)N[C@H](C(C)C)C(=O)N3CCC[C@H]3C(=O)N(C)CC(=O)N(C)[C@@H](C(C)C)C(=O)O[C@@H]2C)c(N)c1=O [Dactinomycin] (0.1 nM)"
endpoint_value = 93.7

[[record]]
compound = "CN(C)C/C=C/C(=O)Nc1cc2c(Nc3ccc(F)c(Cl)c3)ncnc2cc1O[C@H]1CCOC1 [Afatinib] (1 nM)"
endpoint_value = 83.8


###

system: HCC1143; experiment: normalised viability (% of control), CellTiter-Blue; higher = more viable cells (about 100 = DMSO control); settings: 10 nM; incubation time: 72 h
Label T when normalised viability is strictly below 90%; at or above that, label F.

[[record]]
compound = "COc1cccc2cc(-c3nc([C@H]4CC[C@H](C(=O)O)CC4)n4ncnc(N)c34)[nH]c12 [OSI-027]"
target_under_test = "HCC1143"
label_class = "F"

[[record]]
compound = "C=CCNC1=C2C[C@@H](C)C[C@H](OC)[C@H](O)[C@@H](C)/C=C(\\C)[C@H](OC(N)=O)[C@@H](OC)/C=C\\C=C(/C)C(=O)NC(=CC1=O)C2=O [Tanespimycin]"
target_under_test = "HCC1143"
label_class = "T"

[[record]]
compound = "CN(C)C/C=C/C(=O)Nc1cc2c(Nc3ccc(F)c(Cl)c3)ncnc2cc1O[C@H]1CCOC1 [Afatinib]"
target_under_test = "HCC1143"
label_class = "T"

[[record]]
compound = "CS(=O)(=O)c1ccc(C(=O)Nc2ccc(Cl)c(-c3ccccn3)c2)c(Cl)c1 [Vismodegib]"
target_under_test = "HCC1143"
label_class = "F"

[[record]]
compound = "S=c1[nH]cnc2nc[nH]c12 [Mercaptopurine]"
target_under_test = "HCC1143"
label_class = "T"


###

// reported normalised response for each item listed
system: MFM-223; experiment: normalised response (% of control), CellTox Green; higher = less cell death (100 = DMSO, 0 = benzethonium chloride kill control); settings: incubation time: 72 h
Observation Type: normalised response (%)

[[record]]
compound = "O=C(c1ccc(C(=O)N2CCC(N3CCCC3)CC2)c(Nc2ccccc2)c1)N1CCC(N2CCCC2)CC1 [UNC1215] (3000 nM)"
observation_type = "normalised response"
result_unit = "%"
endpoint_value = 101

[[record]]
compound = "CC[C@]1(O)C[C@@H]2CN(CCc3c([nH]c4ccccc34)[C@@](C(=O)OC)(c3cc4c(cc3OC)N(C)[C@H]3[C@@](O)(C(=O)OC)[C@H](OC(C)=O)[C@]5(CC)C=CCN6CC[C@]43[C@@H]65)C2)C1 [Vinblastine] (10 nM)"
observation_type = "normalised response"
result_unit = "%"
endpoint_value = 69.6

[[record]]
compound = "Cc1ccc(F)c(NC(=O)Nc2ccc(-c3cccc4[nH]nc(N)c34)cc2)c1 [Linifanib] (10 nM)"
observation_type = "normalised response"
result_unit = "%"
endpoint_value = 108

[[record]]
compound = "COc1cc(Nc2ncc3c(n2)-c2ccc(Cl)cc2C(c2c(F)cccc2OC)=NC3)ccc1C(=O)O [Alisertib] (1000 nM)"
observation_type = "normalised response"
result_unit = "%"
endpoint_value = 89.1

[[record]]
compound = "CS(=O)(=O)c1ccc(C(=O)Nc2ccc(Cl)c(-c3ccccn3)c2)c(Cl)c1 [Vismodegib] (10000 nM)"
observation_type = "normalised response"
result_unit = "%"
endpoint_value = 98

[[record]]
compound = "CN(C)C/C=C/C(=O)Nc1cc2c(Nc3ccc(F)c(Cl)c3)ncnc2cc1O[C@H]1CCOC1 [Afatinib] (100 nM)"
observation_type = "normalised response"
result_unit = "%"
endpoint_value = 101

[[record]]
compound = "Nc1nc(Cl)nc2c1ncn2[C@H]1C[C@H](O)[C@@H](CO)O1 [Cladribine] (100 nM)"
observation_type = "normalised response"
result_unit = "%"
endpoint_value = 78.7

[[record]]
compound = "CN1CCC(COc2cnc(-c3cccc(Cn4nc(-c5cccc(C#N)c5)ccc4=O)c3)nc2)CC1 (100 nM)"
observation_type = "normalised response"
result_unit = "%"
endpoint_value = 101

[[record]]
compound = "Cc1c2oc3c(C)ccc(C(=O)N[C@@H]4C(=O)N[C@H](C(C)C)C(=O)N5CCC[C@H]5C(=O)N(C)CC(=O)N(C)[C@@H](C(C)C)C(=O)O[C@@H]4C)c3nc-2c(C(=O)N[C@@H]2C(=O)N[C@H](C(C)C)C(=O)N3CCC[C@H]3C(=O)N(C)CC(=O)N(C)[C@@H](C(C)C)C(=O)O[C@@H]2C)c(N)c1=O [Dactinomycin] (1000 nM)"
observation_type = "normalised response"
result_unit = "%"
endpoint_value = 60.5

[[record]]
compound = "CO[C@H]1C[C@@H]2CC[C@@H](C)[C@@](O)(O2)C(=O)C(=O)N2CCCC[C@H]2C(=O)O[C@H]([C@H](C)C[C@@H]2CC[C@@H](OC(=O)C(C)(CO)CO)[C@H](OC)C2)CC(=O)[C@H](C)/C=C(\\C)[C@@H](O)[C@@H](OC)C(=O)[C@H](C)C[C@H](C)/C=C/C=C/C=C/1C [Temsirolimus] (10 nM)"
observation_type = "normalised response"
result_unit = "%"
endpoint_value = 75.2

[[record]]
compound = "COc1cccc2cc(-c3nc([C@H]4CC[C@H](C(=O)O)CC4)n4ncnc(N)c34)[nH]c12 [OSI-027] (100 nM)"
observation_type = "normalised response"
result_unit = "%"
endpoint_value = 105

